Source of measurements: paper PMC5540273

# Test system: HPK1
# Cond: concentration: 1 μM, replicates: in singlicate; n = 1;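 note: KINOMEscan kinase panel screen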
Hi, to clarify the labels: True covers %Inh from 30% upward, False covers anything below 30%.

compound=O=C(NCCCN1CCOCC1)c1cccc(Nc2nccc(Nc3ccc(Oc4ccccc4)cc3)n2)c1 target_under_test=HPK1 class=False
compound=COc1cc2c(cc1OC[C@@H](O)CO)ncc1c3ccc(C#N)cc3[nH]c21 target_under_test=HPK1 class=False
compound="Cc1c(Cn2c(C)nn3c(=O)cc(N4CCOC(C)C4)nc23)cccc1C(F)(F)F (stereo not drawn)" target_under_test=HPK1 class=False
compound=O=C(c1ccc(-c2cc(-c3c[nH]nc3-c3ccccn3)ccn2)cc1)N1CCOCC1 target_under_test=HPK1 class=False
compound=NS(=O)(=O)c1cccc(-c2ccc3ncc(N4CCOCC4)nc3c2)c1 target_under_test=HPK1 class=True
compound=Cc1ccc(C(=O)NCC(N)=O)cc1-n1c(C)cc(OCc2ccc(F)cc2F)c(Br)c1=O target_under_test=HPK1 class=False
compound=COc1cc2ncn(-c3cc(OCc4sccc4Cl)c(C(N)=O)s3)c2cc1OC target_under_test=HPK1 class=True
compound=Cl.Oc1cccc(Nc2ccnc3cc(-c4ccncc4)ccc23)c1 target_under_test=HPK1 class=True
compound=Cc1cccc(-c2nc(-c3ccc(S(C)(=O)=O)cc3)sc2-c2ccncc2)c1 target_under_test=HPK1 class=False
compound=Fc1ccc(-c2ncn(CCCN3CCOCC3)c2-c2cccnc2)cc1 target_under_test=HPK1 class=False
compound=Cc1nnc(-c2ccc(C)c(-c3ccc(C(=O)Nc4ccc(NS(C)(=O)=O)cc4)cc3)c2)o1 target_under_test=HPK1 class=False
compound=O=c1cc(N2CCOCC2)nc2n(Cc3cccc(Cl)c3Cl)c(C3CC3)nn12 target_under_test=HPK1 class=False
compound=COc1ccc(S(=O)(=O)NC2CCN(c3cc(C)nc(Nc4cccc(C#N)c4)n3)CC2)cc1.O=C(O)C(F)(F)F target_under_test=HPK1 class=True
compound=CNc1ncnc2[nH]ncc12 target_under_test=HPK1 class=False
compound=O=C(Nc1n[nH]c2cc(-c3cccc(F)c3)ccc12)C1CC1 target_under_test=HPK1 class=False
compound=CSc1ccc(-c2cc3ncnc(SCC(=O)O)c3s2)cc1 target_under_test=HPK1 class=False
compound=Fc1ccc(-c2ncn(CCCN3CCOCC3)c2-c2ccccn2)cc1 target_under_test=HPK1 class=False
compound=O=C(NCCNc1ccnc(Nc2ccc(F)cc2)n1)Nc1ccccc1F target_under_test=HPK1 class=True
compound=COc1ccc(Nc2ncc(C#N)c(Nc3ccccc3C(N)=O)n2)cc1N1CCN(C)CC1.Cl target_under_test=HPK1 class=True
compound=CC(C)(C)n1cnc2c(N)ncnc21 target_under_test=HPK1 class=True
compound=Cl.Nc1ncnc2occ(-c3ccc(NC(=O)Nc4cc(C(F)(F)F)ccc4F)cc3)c12 target_under_test=HPK1 class=True
compound=COc1cc2c(cc1OCCN1CCN(C)CC1)ncc1c3ccc(C#N)cc3[nH]c21 target_under_test=HPK1 class=False
compound=Fc1ccc(-c2nn3c(OCC(F)(F)F)cccc3c2-c2ccncc2)cc1 target_under_test=HPK1 class=False
compound=c1ccc(-c2cc(-c3c[nH]nc3-c3ccccn3)ccn2)cc1 target_under_test=HPK1 class=False
compound=NS(=O)(=O)c1cccc(-c2ccc3nccc(-c4cccc(S(N)(=O)=O)c4)c3c2)c1 target_under_test=HPK1 class=False
compound=Cc1cccc(-c2nc(Nc3ccc4ncsc4c3)c3ccccc3n2)n1 target_under_test=HPK1 class=False
compound=Cc1cccc(Cn2ccn3c(=O)cc(N4CCOCC4)nc23)c1 target_under_test=HPK1 class=True
compound=COc1ccc(COc2cc(-n3cnc4ccccc43)sc2C(N)=O)cc1 target_under_test=HPK1 class=True
compound=CCc1nc(-c2cccc(C)c2)c(-c2ccnc(NCc3ccccc3)c2)s1 target_under_test=HPK1 class=False
compound=NS(=O)(=O)CCc1cccc(Nc2nccc(-c3c(-c4cccc(NC(=O)c5c(F)cccc5F)c4)nn4ccccc34)n2)c1 target_under_test=HPK1 class=True
compound=c1ccc(-c2n[nH]cc2-c2ccnc3ccccc23)nc1 target_under_test=HPK1 class=False
compound=N#Cc1c(N2CCOCC2)sc(-c2ccn[nH]2)c1-c1ccc(Cl)cc1 target_under_test=HPK1 class=False
compound=Cn1cc(-c2ccc3c(c2)CCN3C(=O)Cc2ccccc2Cl)c2c(N)ncnc21 target_under_test=HPK1 class=True

====

# Tested on: CDKL2
# Cond: concentration: 1 μM, replicates: in singlicate; n = 1
Observable: %Inh (%)

compound="NS(=O)(=O)CCc1cccc(Nc2nccc(-c3c(-c4cccc(NC(=O)c5c(F)cccc5F)c4)nn4ccccc34)n2)c1 [GSK336735]" value_observed=25
compound="NS(=O)(=O)c1cccc(-c2ccc3nccc(-c4cccc(S(N)(=O)=O)c4)c3c2)c1 [GW867253]" value_observed=16
compound="COc1ccc(S(=O)(=O)NC2CCN(c3cc(C)nc(Nc4cccc(C#N)c4)n3)CC2)cc1.O=C(O)C(F)(F)F [GSK1653539]" value_observed=0
compound="NCC(NC(=O)c1cc(-c2cn[nH]c2)c(-c2ccnc3[nH]ccc23)s1)c1ccccc1.O=C(O)C(F)(F)F.O=C(O)C(F)(F)F (centres unmarked) [GSK1325775]" value_observed=53
compound="NS(=O)(=O)c1cccc(-c2ccc3ncc(N4CCOCC4)nc3c2)c1 [GSK1535721]" value_observed=0
compound="CC(=O)Nc1ccc(COc2ccc(Nc3ccnc4cc(-c5ccccn5)ccc34)cc2)cc1.Cl [GW440148]" value_observed=12
compound="CCn1cnc2c(N)ncnc21 [GW345098]" value_observed=0
compound="[2H]C([2H])(c1cccc(C(F)(F)F)c1C)n1ccn2c(=O)nc(N3CCOCC3)cc12 [GSK2336394]" value_observed=22
compound="Nc1nc(-c2ccc3c(N)n[nH]c3c2)cc(N2CCCC2)n1 [GSK2227430]" value_observed=0
compound="CCCCCc1nc2c(N)ncnc2n1CCCCC [SKF-97255]" value_observed=0
compound=CCc1ccnc(/C=C/c2n[nH]c3cc(Sc4ccccc4C(=O)NC)ccc23)c1 value_observed=0
compound="O=C(NCCCN1CCOCC1)c1cccc(Nc2nccc(Nc3ccc(Oc4ccccc4)cc3)n2)c1 [GW663929]" value_observed=28
compound="COc1ccc(Nc2nccc(N3CCC(NC(=O)Nc4cc(C)ccc4C)C3)n2)cc1 (centres unmarked) [GSK1379741]" value_observed=44
compound="Cc1ccc(NC(=O)c2ccnc(N3CCN(C)CC3)c2)cc1-c1ccc(C(=O)NCC2CC2)cc1 [GW775604]" value_observed=0
compound="O=C(Nc1n[nH]c2cc(-c3cccc(F)c3)ccc12)C1CC1 [SB-735464]" value_observed=57
compound="COc1ccc(Nc2nccc(N3CCC(NC(=O)Nc4cccc(C(C)=O)c4)C3)n2)cc1 (centres unmarked) [GSK1379731]" value_observed=43
compound="CN(C1=C(c2ccccc2)C(=O)NC1=O)c1ccccc1 [SB-334860]" value_observed=0

====

%Inh values for the compounds below.
# Tested on: ULK3
# Cond: concentration: 1 μM, replicates: in singlicate; n = 1
Observable: %Inh (%)

compound="CC(C)(C)n1cnc2c(N)ncnc21 [SKF-97359]" value_observed=0
compound="COc1cc(Nc2nccc(N3CCC(NC(=O)c4cccc(NC(C)=O)c4)C3)n2)cc(OC)c1OC (centres unmarked) [GSK1379754]" value_observed=87
compound=O=C(NOCC1CC1)c1ccc(F)c(F)c1Nc1ccc(I)cc1Cl value_observed=0
compound="COCCNC(=O)c1ccc(-c2cc(C(=O)NC3CC3)cc(F)c2C)cc1 [GW868318]" value_observed=47
compound=CN1c2ccc(CNc3ccc(F)cc3)cc2-c2c(cnn2C)S1(=O)=O value_observed=0

====

%Inh values for the molecules below.
# Test system: CDK4-cyclinD3
# Cond: concentration: 1 μM, replicates: in singlicate; n = 1
Observable: %Inh (%)

molecule="COc1cc2ncn(-c3cc(OCc4sccc4Cl)c(C(N)=O)s3)c2cc1OC [GSK448459]" observable=%Inh value_observed=0
molecule=COc1cc2c(cc1OCCN1CCN(C)CC1)ncc1c3ccc(C#N)cc3[nH]c21 observable=%Inh value_observed=0
molecule="O=C1NC(=O)C(N2CCc3ccccc32)=C1c1cccc(Cl)c1 [SB-408010]" observable=%Inh value_observed=0

====

# Tested on: FGFR2
# Cond: concentration: 1 μM, replicates: in singlicate; n = 1
%Inh values for the compounds below.
Observable: %Inh (%)

compound="COc1ccc(CNC(=O)NC2CCN(c3ccnc(Nc4ccc(OC)cc4)n3)C2)cc1 (stereo not drawn) [GSK1379727]" unit_abbrev=% value_observed=7
compound="Cl.Cl.Cl.Fc1ccc(-c2ncn(C3CCNCC3)c2-c2ccnc(Nc3ccccc3)n2)cc1 [SB-238039]" unit_abbrev=% value_observed=0
compound="O=C1NC(=O)C(N2CCc3ccccc32)=C1c1cccc(Cl)c1 [SB-408010]" unit_abbrev=% value_observed=15
compound="O=C(NCCCN1CCOCC1)c1cccc(Nc2nccc(Nc3ccc(Oc4ccccc4)cc3)n2)c1 [GW663929]" unit_abbrev=% value_observed=0
compound=CN1c2ccc(NCc3ccc(F)cc3)cc2-c2c(cnn2C)S1(=O)=O unit_abbrev=% value_observed=2
compound="O=c1cc(N2CCOCC2)nc2n(Cc3cccc(F)c3)ccn12 [GSK2297430]" unit_abbrev=% value_observed=0
compound="COc1ccc(Nc2nccc(N3CCC(NC(=O)Nc4cccc(C(C)=O)c4)C3)n2)cc1 (stereo not drawn) [GSK1379731]" unit_abbrev=% value_observed=0
compound="Cc1cccc(-c2nc(Nc3ccc4ncsc4c3)c3ccccc3n2)n1 [GW867588]" unit_abbrev=% value_observed=0
compound="NS(=O)(=O)c1cccc(-c2ccc3ncc(N4CCOCC4)nc3c2)c1 [GSK1535721]" unit_abbrev=% value_observed=0
